IC50 by entry:
# Target Or System: USP30 (Homo sapiens (Human))
# Sequence (Q70CQ3 57-517): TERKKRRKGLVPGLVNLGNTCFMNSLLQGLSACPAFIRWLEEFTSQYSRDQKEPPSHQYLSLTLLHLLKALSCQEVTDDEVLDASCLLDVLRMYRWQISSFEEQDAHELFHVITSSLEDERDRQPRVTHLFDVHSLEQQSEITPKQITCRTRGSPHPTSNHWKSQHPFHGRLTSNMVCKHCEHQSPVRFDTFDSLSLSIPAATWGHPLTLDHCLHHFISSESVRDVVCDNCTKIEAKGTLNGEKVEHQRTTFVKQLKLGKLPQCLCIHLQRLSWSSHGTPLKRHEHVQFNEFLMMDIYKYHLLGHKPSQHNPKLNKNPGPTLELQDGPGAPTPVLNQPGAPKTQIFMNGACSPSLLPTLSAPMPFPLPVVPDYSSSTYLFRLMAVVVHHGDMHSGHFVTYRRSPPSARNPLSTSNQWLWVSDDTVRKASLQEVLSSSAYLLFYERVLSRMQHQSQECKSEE

• N#CN1C[C@H](NC(=O)c2ccc(-c3ccccc3)cc2)[C@@H](F)C1 (relative stereo) = 0.1 to 1 µM
• N#CN1CCC(NC(=O)Nc2ccc(-c3ccccc3)cc2)C1 (stereo not drawn) = < 0.1 µM
• N#CN1CC[C@@H](NC(=O)c2cc(F)c(N3CCOCC3)cc2F)C1 = 0.1 to 1 µM

State its IC50: `Cc1noc(C)c1-c1ccc2cc(C(=O)N(C)[C@@H]3CCN(C#N)C3)[nH]c2c1`
< 0.1 µM

State its IC50: `Cn1cc(-c2ccc(C(=O)N[C@@H]3CCN(C#N)C3)c(F)c2F)cn1`
< 0.1 µM

State its IC50: `Cn1cc(-c2ccc3nc(C(=O)N[C@@H]4CCN(C#N)C4)c(F)n3c2)cn1`
0.1 to 1 µM

The values you see were collected from patent US10689345B2.
